Data provenance: patent US20040121947A1

- Target Of Assay: T1, memapsin 2 (Homo sapiens, UniProt P56817)
- T1 construct: pET-11 vector-derived residues 1-15 of promemapsin 2-T1 (N, cleaved yes); made in house; host or cells: E. coli
- T1 sequence (P56817 41-454 limits assumed): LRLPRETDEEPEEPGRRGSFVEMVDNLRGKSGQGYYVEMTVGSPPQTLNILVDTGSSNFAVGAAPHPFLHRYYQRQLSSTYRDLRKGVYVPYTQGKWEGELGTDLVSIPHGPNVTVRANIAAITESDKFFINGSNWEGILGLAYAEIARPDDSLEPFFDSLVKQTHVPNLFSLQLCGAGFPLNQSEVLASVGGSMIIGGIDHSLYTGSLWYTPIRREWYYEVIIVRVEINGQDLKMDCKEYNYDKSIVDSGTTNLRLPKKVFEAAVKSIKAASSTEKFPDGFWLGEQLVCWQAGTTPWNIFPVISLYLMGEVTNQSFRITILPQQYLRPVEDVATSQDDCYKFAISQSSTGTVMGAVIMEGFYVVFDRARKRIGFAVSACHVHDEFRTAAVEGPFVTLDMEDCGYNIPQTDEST
- Assay Method Text: Inhibition of memapsin 2 proteolytic activity, fluorogenic substrate FS-2
- Format: biochemical
- Reported Conditions: Ki, [I] < 100, memapsin 2; [I] < 100 (nM)
Measured Attribute: Ki (nM)

A selection of reference data follows.
{"columns": ["Mol", "Unit Of Measure", "Reported Result"],
 "data": [
  ["CCCCNC(=O)[C@@H](NC(=O)C(C)(C)C[C@H](O)[C@H](CC(C)C)NC(=O)[C@H](CCSC)NC(=O)OCn1nc(C)cc1C)C(C)C", "nM", 226],
  ["CCCCNC(=O)[C@H](C(C)C)N1CC[C@@](C)(C[C@H](O)[C@H](CC(C)C)NC(=O)[C@H](CCSC)NC(=O)OCn2nc(C)cc2C)C1=O", "nM", 72.7],
  ["COc1ccc(C(=O)N[C@@H](CCSC)C(=O)N[C@@H](CC(C)C)[C@@H](O)C[C@@H](C)C(=O)N[C@@H](CC(C)C)C(=O)NC(C)C)cc1", "nM", 407],
  ["CSCC[C@H](NC(=O)[C@@H](NC(=O)OC(C)(C)C)C(C)C)C(=O)N[C@@H](CC(C)C)[C@@H](O)C[C@@H](C)C(=O)N[C@@H](CC(C)C)C(=O)N1CCN(C)CC1", "nM", 64],
  ["COc1cccc(C(=O)N[C@@H](CCSC)C(=O)N[C@@H](CC(C)C)[C@@H](O)C[C@@H](C)C(=O)N[C@@H](CC(C)C)C(=O)NC(C)C)c1OC", "nM", 292],
  ["CSCC[C@H](NC(=O)[C@@H](NC(=O)OC(C)(C)C)C(C)C)C(=O)N[C@@H](CC(C)C)[C@@H](O)C[C@@H](C)C(=O)N[C@@H](CC(C)C)C(=O)N1CCOCC1", "nM", 108],
  ["COc1cccc(C(=O)N[C@@H](CSC)C(=O)N[C@@H](CC(C)C)[C@@H](O)C[C@@H](C)C(=O)N[C@@H](CC(C)C)C(=O)NC(C)C)c1OC", "nM", 190]
]}

(I) COc1ccccc1C(=O)N[C@@H](CCSC)C(=O)N[C@@H](CC(C)C)[C@@H](O)C[C@@H](C)C(=O)N[C@@H](CC(C)C)C(=O)NC(C)C
(II) CSCC[C@H](NC(=O)c1cccc(O)c1C)C(=O)N[C@@H](CC(C)C)[C@@H](O)C[C@@H](C)C(=O)N[C@@H](CC(C)C)C(=O)NCc1ccccc1
input: Please tell me which of the two, I or II , has the higher reported Ki value. Selection: enter the item's label.
output: I
